Test: Phase 1 study Part 1: plasma PK and relative bioavailability of LUM-201 tablets vs capsule
Format: in vivo, human
Conditions: human, plasma, po, 85.3 mg, Part 1, Treatment C (test): 85.3 mg capsule contents (dry), oral, fasted; read-out: t1/2, Geometric Mean (converted)
PROPERTY: half-life

Memo: CC(C)(N)C(=O)N[C@H](COCc1ccccc1)C(=O)N1CCC2(CC1)CN(S(C)(=O)=O)c1ccccc12 , reported half-life: 8.47 h

----------
Assay: Phase 1 study Part 1: plasma PK and relative bioavailability of LUM-201 tablets vs capsule
Assay type: in vivo, human
Details: human, plasma, po, 85.3 mg, Part 1, Treatment B (test): 85.3 mg whole capsule, oral, fasted; read-out: Cmax, Arithmetic Mean
PROPERTY: Cmax (ng/mL)
Form entry: value (ng/mL) — number only.

Memo: CC(C)(N)C(=O)N[C@H](COCc1ccccc1)C(=O)N1CCC2(CC1)CN(S(C)(=O)=O)c1ccccc12 , reported Cmax: 115

----------
Assay: Phase 1 study Part 1: plasma PK and relative bioavailability of LUM-201 tablets vs capsule
Assay type: in vivo, human
Conditions: human, plasma, po, 85.3 mg, Part 1, Treatment C (test): 85.3 mg capsule contents (dry), oral, fasted; read-out: AUC0-last, Arithmetic Mean
PROPERTY: AUC(0-t) (ng·h/mL)
Form entry: value (ng·h/mL) — number only.

Memo: CC(C)(N)C(=O)N[C@H](COCc1ccccc1)C(=O)N1CCC2(CC1)CN(S(C)(=O)=O)c1ccccc12 [LUM-201] , reported AUC(0-t): 573

----------
Assay: Phase 1 study Part 1: plasma PK and relative bioavailability of LUM-201 tablets vs capsule
Type: in vivo, human
Conditions: human, plasma, po, 85.3 mg, Part 1, Treatment D (test): 85.3 mg capsule contents in banana puree, oral, fasted; read-out: AUC0-inf, Geometric Mean
PROPERTY: AUC(0-inf)
# number then unit; no other words

Memo: CC(C)(N)C(=O)N[C@H](COCc1ccccc1)C(=O)N1CCC2(CC1)CN(S(C)(=O)=O)c1ccccc12 [LUM-201] , reported AUC(0-inf): 546 ng·h/mL

----------
Assay: Phase 1 study Part 1: plasma PK and relative bioavailability of LUM-201 tablets vs capsule
Format: in vivo, human
Details: Part 1, Treatment B (test): 85.3 mg whole capsule, oral, fasted
PROPERTY: λz, Arithmetic Mean (h⁻¹)
Form entry: value (h⁻¹) — number only.

Memo: CC(C)(N)C(=O)N[C@H](COCc1ccccc1)C(=O)N1CCC2(CC1)CN(S(C)(=O)=O)c1ccccc12 [LUM-201] , reported λz, Arithmetic Mean: 0.0877

----------
Experiment: Phase 1 study Part 2: food effect on plasma PK of LUM-201 capsule
Assay type: in vivo, human
Conditions: human, plasma, po, 85.3 mg, Part 2, Treatment A: 85.3 mg capsule, oral, fasted; read-out: Cmax, Geometric Mean
PROPERTY: Cmax
# number then unit; no other words

Memo: CC(C)(N)C(=O)N[C@H](COCc1ccccc1)C(=O)N1CCC2(CC1)CN(S(C)(=O)=O)c1ccccc12 , reported Cmax: 80.5 ng/mL

----------
Test: Phase 1 study Part 1: plasma PK and relative bioavailability of LUM-201 tablets vs capsule
Type: in vivo, human
Details: human, plasma, po, 90 mg, Part 1, Treatment A (reference): five 18 mg tablets (90 mg), oral, fasted; read-out: AUC0-last, Arithmetic Mean
PROPERTY: AUC(0-t) (ng·h/mL)
Form entry: value (ng·h/mL) — number only.

Memo: CC(C)(N)C(=O)N[C@H](COCc1ccccc1)C(=O)N1CCC2(CC1)CN(S(C)(=O)=O)c1ccccc12 , reported AUC(0-t): 620

----------
Assay: Phase 1 study Part 1: plasma PK and relative bioavailability of LUM-201 tablets vs capsule
Assay type: in vivo, human
Settings: human, plasma, po, 85.3 mg, Part 1, Treatment C (test): 85.3 mg capsule contents (dry), oral, fasted; read-out: tmax, Median
PROPERTY: Tmax (h)
Form entry: value (h) — number only.

Memo: CC(C)(N)C(=O)N[C@H](COCc1ccccc1)C(=O)N1CCC2(CC1)CN(S(C)(=O)=O)c1ccccc12 [LUM-201] , reported Tmax: 1.12

----------
Assay: Phase 1 study Part 2: food effect on plasma PK of LUM-201 capsule
Type: in vivo, human
Settings: Part 2, Treatment B: 85.3 mg capsule, oral, 30 minutes after start of high-fat meal
PROPERTY: λz, Geometric Mean (h⁻¹)
Form entry: value (h⁻¹) — number only.

Memo: CC(C)(N)C(=O)N[C@H](COCc1ccccc1)C(=O)N1CCC2(CC1)CN(S(C)(=O)=O)c1ccccc12 , reported λz, Geometric Mean: 0.0803

----------
Assay: Phase 1 study Part 2: food effect on plasma PK of LUM-201 capsule
Assay type: in vivo, human
Conditions: human, plasma, po, 85.3 mg, Part 2, Treatment A: 85.3 mg capsule, oral, fasted; read-out: AUC0-inf, Arithmetic Mean
PROPERTY: AUC(0-inf)

Memo: CC(C)(N)C(=O)N[C@H](COCc1ccccc1)C(=O)N1CCC2(CC1)CN(S(C)(=O)=O)c1ccccc12 , reported AUC(0-inf): 538 ng·h/mL

----------
Test: Phase 1 study Part 2: food effect on plasma PK of LUM-201 capsule
Assay type: in vivo, human
Conditions: human, plasma, po, 85.3 mg, Part 2, Treatment A: 85.3 mg capsule, oral, fasted; read-out: t1/2, Geometric Mean (converted)
PROPERTY: half-life (h)
Form entry: value (h) — number only.

Memo: CC(C)(N)C(=O)N[C@H](COCc1ccccc1)C(=O)N1CCC2(CC1)CN(S(C)(=O)=O)c1ccccc12 [LUM-201] , reported half-life: 8.17

----------
Experiment: Phase 1 study Part 2: food effect on plasma PK of LUM-201 capsule
Format: in vivo, human
Details: human, plasma, po, 85.3 mg, Part 2, Treatment B: 85.3 mg capsule, oral, 30 minutes after start of high-fat meal; read-out: AUC0-inf, Geometric Mean
PROPERTY: AUC(0-inf) (µg·h/mL)
Form entry: value (µg·h/mL) — number only.

Memo: CC(C)(N)C(=O)N[C@H](COCc1ccccc1)C(=O)N1CCC2(CC1)CN(S(C)(=O)=O)c1ccccc12 , reported AUC(0-inf): 0.591

----------
Assay: Phase 1 study Part 2: food effect on plasma PK of LUM-201 capsule
Assay type: in vivo, human
Details: human, plasma, po, 85.3 mg, Part 2, Treatment A: 85.3 mg capsule, oral, fasted; read-out: AUC0-last, Geometric Mean
PROPERTY: AUC(0-t) (ng·h/mL)
Form entry: value (ng·h/mL) — number only.

Memo: CC(C)(N)C(=O)N[C@H](COCc1ccccc1)C(=O)N1CCC2(CC1)CN(S(C)(=O)=O)c1ccccc12 , reported AUC(0-t): 494

----------
Experiment: Phase 1 study Part 1: plasma PK and relative bioavailability of LUM-201 tablets vs capsule
Type: in vivo, human
Details: human, plasma, po, 85.3 mg, Part 1, Treatment C (test): 85.3 mg capsule contents (dry), oral, fasted; read-out: t1/2, Arithmetic Mean (converted)
PROPERTY: half-life (h)
Form entry: value (h) — number only.

Memo: CC(C)(N)C(=O)N[C@H](COCc1ccccc1)C(=O)N1CCC2(CC1)CN(S(C)(=O)=O)c1ccccc12 , reported half-life: 8.58

----------
Experiment: Phase 1 study Part 1: plasma PK and relative bioavailability of LUM-201 tablets vs capsule
Format: in vivo, human
Conditions: Part 1, Treatment A (reference): five 18 mg tablets (90 mg), oral, fasted
PROPERTY: λz, Geometric Mean (h⁻¹)
Form entry: value (h⁻¹) — number only.

Memo: CC(C)(N)C(=O)N[C@H](COCc1ccccc1)C(=O)N1CCC2(CC1)CN(S(C)(=O)=O)c1ccccc12 , reported λz, Geometric Mean: 0.0886

----------
Assay: Phase 1 study Part 1: plasma PK and relative bioavailability of LUM-201 tablets vs capsule
Format: in vivo, human
Conditions: human, plasma, oral, Part 1, post-dose, Treatments A to D; read-out: median tmax, range over all four treatments
PROPERTY: Tmax

Memo: CC(C)(N)C(=O)N[C@H](COCc1ccccc1)C(=O)N1CCC2(CC1)CN(S(C)(=O)=O)c1ccccc12 , reported Tmax: 0.782 to 1.23 h

----------
Test: Phase 1 study Part 1: plasma PK and relative bioavailability of LUM-201 tablets vs capsule
Assay type: in vivo, human
Settings: Part 1, Treatment D (test): 85.3 mg capsule contents in banana puree, oral, fasted
PROPERTY: λz, Arithmetic Mean
# number then unit; no other words

Memo: CC(C)(N)C(=O)N[C@H](COCc1ccccc1)C(=O)N1CCC2(CC1)CN(S(C)(=O)=O)c1ccccc12 , reported λz, Arithmetic Mean: 0.0872 h⁻¹

----------
Assay: Phase 1 study Part 1: plasma PK and relative bioavailability of LUM-201 tablets vs capsule
Format: in vivo, human
Conditions: human, plasma, po, 90 mg, Part 1, Treatment A (reference): five 18 mg tablets (90 mg), oral, fasted; read-out: tmax, Median
PROPERTY: Tmax (min)
Form entry: value (min) — number only.

Memo: CC(C)(N)C(=O)N[C@H](COCc1ccccc1)C(=O)N1CCC2(CC1)CN(S(C)(=O)=O)c1ccccc12 , reported Tmax: 46.9

Data credit: patent US20250332149A1
